Data provenance: patent US8058475B2

- TESTED ON: Noradrenaline (NA) reuptake (Rattus norvegicus, UniProt Q63380)
- Construct: synaptosomes are freshly isolated from areas of rat brain; from tissue; host or cells: rat hypothalamus synaptosomes (P2 fraction)
- Sequence (Q63380 1-617): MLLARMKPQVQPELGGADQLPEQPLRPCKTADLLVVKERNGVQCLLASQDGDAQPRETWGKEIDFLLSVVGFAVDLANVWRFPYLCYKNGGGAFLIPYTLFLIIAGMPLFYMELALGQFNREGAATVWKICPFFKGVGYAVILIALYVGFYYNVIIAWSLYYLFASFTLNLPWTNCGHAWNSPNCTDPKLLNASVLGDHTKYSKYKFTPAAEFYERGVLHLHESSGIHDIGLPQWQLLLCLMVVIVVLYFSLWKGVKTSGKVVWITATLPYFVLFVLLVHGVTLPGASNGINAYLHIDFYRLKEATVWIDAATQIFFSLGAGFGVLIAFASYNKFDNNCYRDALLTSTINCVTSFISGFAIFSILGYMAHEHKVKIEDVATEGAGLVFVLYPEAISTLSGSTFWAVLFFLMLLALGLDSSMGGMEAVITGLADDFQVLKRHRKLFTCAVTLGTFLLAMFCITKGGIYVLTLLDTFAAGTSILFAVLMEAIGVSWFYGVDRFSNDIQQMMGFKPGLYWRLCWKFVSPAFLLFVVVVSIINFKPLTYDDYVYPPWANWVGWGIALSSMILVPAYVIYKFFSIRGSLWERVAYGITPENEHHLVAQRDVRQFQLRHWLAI
- ASSAY NAME: Noradrenaline (NA) reuptake inhibition in rat brain synaptosomes (hypothalamus, P2 fraction)
- Type: biochemical
- Text: Noradrenaline (NA) and Serotonin (5HT) Reuptake Inhibition In order to be able to carry out these studies in vitro, synaptosomes are freshly isolated from areas of rat brain. A so-called “P2” fraction prepared by the method of Gray and Whittaker (E. G. Gray and V. P. Whittaker (1962) J. Anat. 76, 79-88) is used in each case. For the NA uptake, these vesicular particles are isolated from the hypothalamus of male rat brains. […]
# Ki per entry
# number only, unit nM dropped from output

Solved cases (3 shown):
1. COc1ccc(NC(=O)NC2CCC(C(c3ccccc3)N(C)C)CC2)cc1 (centres unmarked)    120
2. CCOC(=O)C=CC1CCC(C(c2cccc(F)c2)N(C)C)CC1 (centres unmarked)    620
3. CN(C)C(c1cccc(F)c1)C1CCC(CN)CC1 (centres unmarked)    110

Hello, I am looking for reported Ki with Noradrenaline (NA) reuptake (Rattus norvegicus, UniProt Q63380) for CN(C)C(c1ccccc1)C1CCC(NC(=O)Nc2ccccc2)CC1.Cl (centres unmarked) [compound 78, hydrochloride] . Could you help?
290
